# RUN DESCRIPTION: solvent given as SMILES
# CONDITION DESCRIPTION: in CC(=O)OCc1ccccc1
Flag rule - solvation free energy, 298 K less than -4 kcal/mol flags 1 (yes); the remaining entries get 0 (no).

Use the examples below as a reference point.
| COMPOUND SMILES | ASSIGNED CATEGORY |
| --- | --- |
| C1CCCCC1 | 0 (no) |
| CC(C)(C)Cl | 0 (no) |

# input In the record for CC(C)OC(C)C , is solvation free energy, 298 K less than -4 kcal/mol?
# output 0 (no)

# input Please indicate whether the reported solvation free energy, 298 K of CCBr is strictly below -4 kcal/mol.
# output 0 (no)

# input Does the reported solvation free energy, 298 K of ClCCCl stay below -4 kcal/mol?
# output 1 (yes)

# input I wonder whether c1ccccc1 has solvation free energy, 298 K below -4 kcal/mol. Can you tell?
# output 1 (yes)
